The compounds listed here are annotated with their GI50.
# Test system: HCT-116
# assayNotes: NCI tumour cell line growth inhibition, 48 h
Activity calls are given as the source filed them. No stated cut-off is given here; in the data, active = GI50 up to about 1.1 µM and inactive = higher.

{"compound": "C=C1CC[C@](C)(O)[C@@]2(C)CC[C@H]3C(=C(C)C)C(=O)C[C@]3(C)C[C@H]12", "GI50": "14.8 µM (inactive)"}
{"compound": "N/C(=N\\c1c([N+](=O)[O-])cnc2ccccc12)N1CCOCC1", "GI50": "> 100 µM (inactive)"}
{"compound": "CCN(CC)c1ccc2cc(-c3nnc(-c4ccccc4)o3)c(=O)oc2c1", "GI50": "19.9 µM (inactive)"}

Query: Data request, read-out GI50, for [O-][S+]1c2ccc(Cl)cc2CC(SSC2Cc3cc(Cl)ccc3[S+]([O-])c3ccccc32)c2ccccc21 (configuration not stated)
Reply: > 100 µM (inactive)

Query: O=c1[nH]c2nc(S)nc(S)c2[nH]1 , same question.
Reply: > 100 µM (inactive)

Query: Next compound: NNC(=S)NCCNC(=S)NN
Reply: > 100 µM (inactive)

Query: Another compound to check: Nc1c(OCC(=O)O)ccc2cc(S(=O)(=O)O)ccc12
Reply: > 100 µM (inactive)

----------
# Tested on: K562
# assayNotes: NCI tumour cell line growth inhibition, 48 h
Calls of active or inactive are those of the source. Rule as the data show it: active = GI50 up to about 1.1 µM and inactive = higher.
Return exactly one item of 1 for active, -1 for inactive

Some entries whose results are on file:
{"molecule": "CCN(CC)CCO/N=C1\\CC[C@H]2[C@@H]3CCc4cc(OC)ccc4[C@H]3CC[C@]12C", "className": 1}
{"molecule": "CN(C)CCNC(=O)c1cccc2c1nc(-c1cccnc1)c1ccccc12", "className": -1}
{"molecule": "C/C(=C\\Cc1ccc(F)cc1)CCCCCC/C(C)=C/Cc1ccc(F)cc1", "className": -1}
{"molecule": "OCC1COc2cc(Cl)c(Cl)cc2O1 (stereo not drawn)", "className": -1}
{"molecule": "O=C(NNC(=O)c1ccccc1O)c1ccc(O)cc1", "className": -1}
{"molecule": "CC(=O)NC1C(OCc2ccccc2)OC(COC(=O)CCCCCCCCCCNC(=O)CCNc2ccc([N+](=O)[O-])c3[nH]c4ccc(O)cc4c(=O)c23)C(O)C1OC(C)C(=O)N[C@H](C(=O)N[C@H](CCC(=O)O)C(N)=O)C(C)C (stereo partly drawn)", "className": -1}
{"molecule": "S=C1/C(=N/c2ccccc2)N(C2CCCCC2)/C(=N\\C2CCCCC2)N1c1ccccc1", "className": -1}
{"molecule": "COc1ccc(C(=O)/C=C/S/C(=N/C#N)SC)cc1", "className": -1}
{"molecule": "N#CC1C(=O)NC(=O)C(C#N)C1c1ccc(Cl)c(Cl)c1 (stereo not drawn)", "className": -1}
{"molecule": "CC(C)(C)c1ccc(O)c(CN(Cc2cc(C(C)(C)C)ccc2O)C2CCCCC2)c1", "className": -1}

// switching to the query molecule
Query: Hi team, can someone confirm the assay call for COC(C(O)c1ccc2c(c1)OCO2)P(=O)(c1ccccc1)c1ccccc1 (stereo not drawn) ?
Reply: -1

----------
# Test system: SK-MEL-2
# assayNotes: NCI tumour cell line growth inhibition, 48 h
The source made the active and inactive calls. No stated cut-off is given here; in the data, active = GI50 up to about 1.1 µM and inactive = higher.
Field 'call' accepts active, inactive

{"compound": "COC(=O)c1s/c(=N\\C(=S)N(C)C)n(-c2ccccc2)c1C(=O)OC", "className": "inactive"}
{"compound": "COC(=O)C1=C(C(=O)OC)SC2(S1)C(C(=O)OC)=C(C(=O)OC)Sc1c2ss/c1=N/C(C)(C)C", "className": "inactive"}
{"compound": "N#C/C(=C\\c1cc(Br)c(O)c(Br)c1)c1ccccn1", "className": "inactive"}
{"compound": "OC(C/C=N/N=C/CC(O)(C(F)(F)Cl)C(F)(F)Cl)(C(F)(F)Cl)C(F)(F)Cl", "className": "inactive"}
{"compound": "[N-]=[N+]=NC1(c2ccccc2)C(=O)c2cccc3c4ccccc4n(c23)C1=O (configuration not stated)", "className": "inactive"}

Query: Any idea what this test logged for S=C(N/N=C/c1ccccn1)N1CCCCCC1 ?
Reply: active

Query: Also Cc1cn2c(/C=N/NC(=N)N)c(-c3ccc(Cl)c([N+](=O)[O-])c3)nc2s1 ?
Reply: active

Query: Check COc1cc(/C=C\C(=O)O)ccc1OCc1ccccc1 too.
Reply: inactive

Query: Check COc1cc2c(cc1OC)-c1c3c(cc4c1[C@@H](C2)N(C)CC4)OCO3 too.
Reply: inactive

Query: // next record CC1(C)CCC2=C(O1)/C(=N\Nc1ccccc1)c1ccccc1C2=O
Reply: inactive

Query: Now consider Cc1c(NC(=O)Nc2c(Cl)cccc2Cl)c(=O)n(-c2ccccc2)n1C .
Reply: inactive

Query: Next compound: CN(C)CCNC(=O)c1cccc2c1nc(-c1cccnc1)c1ccccc12
Reply: inactive

Query: Now try CCOC(=O)C(=[N+]=[N-])C(=O)C[N+]12CCN(CC1)CC2 .
Reply: inactive

Query: Another compound to check: CC1(O)CC2C(CC1SC1CC3C(CC1(C)O)C3(C)C)C2(C)C (configuration not stated)
Reply: inactive

Query: Nc1ccc(-c2nc3cc(F)ccc3s2)cc1 , same question.
Reply: inactive

Query: Entry CC(C)=CC1CCc2ccccc2N1S(=O)(=O)c1ccc(C)cc1 (configuration not stated) please
Reply: inactive

Query: // same read-out, input: O=C(c1ccccc1)C1N=NN(Cc2ccccc2[N+](=O)[O-])C1C(=O)c1ccccc1 (configuration not stated)
Reply: inactive

Query: Next: CC1(C)CC(O)CC(C)(C)N1O [TEMPOL HYDROXYLAMINE]
Reply: inactive

Query: Now consider O=C1OC(=O)c2c1cc1cc3c(cc1c2-c1ccc2c(c1)OCO2)OCO3 and answer again.
Reply: inactive

Query: Now the same for CC1(c2ccc(Cl)cc2)C=C(c2ccc(Cl)cc2)C(C#N)=C(C(C#N)C#N)N1.CNC (configuration not stated)
Reply: inactive

Query: Can you check N=C(N)SCc1nc(-c2ccc(Cl)cc2)no1 next?
Reply: inactive

Query: Again, but for COc1cc2c(c(OC)c1OC)-c1ccc(OC)c(=O)cc1C(NC(=O)COc1ccccc1)CC2 (configuration not stated)
Reply: active

----------
# Test system: M14
# assayNotes: NCI tumour cell line growth inhibition, 48 h
Calls of active or inactive are those of the source. Rule as the data show it: active = GI50 up to about 1.1 µM and inactive = higher.
Just give me one of these, please: 1.0 = active, 0.0 = inactive

Query: Test call for this compound, please: CC1(C)C(=O)C=CC2(C)C1CC(O)C1(C)C2CCC2(C)C(c3ccoc3)OC(=O)C3OC321 (stereo not drawn)
Reply: 0.0

Query: Can you handle C/C(=C\Cc1ccc(F)cc1)CCCCCC/C(C)=C/Cc1ccc(F)cc1 next?
Reply: 0.0

Query: CSc1ncc2c(n1)-c1ccccc1OC2 ?
Reply: 0.0

Query: Then this compound: S=C(N/N=C/c1ccccn1)N1CCCCCC1
Reply: 1.0

----------
Entries below carry reported GI50 on HCT-15.
Write the number in µM without appending the unit.

The examples below pair each entry with its known result.
{"molecule": "COC(=O)C1=C(C(=O)OC)SC2(S1)C(C(=O)OC)=C(C(=O)OC)Sc1c2ss/c1=N/C(C)(C)C", "unitsText": "µM", "GI50": 0.622}
{"molecule": "CCOC(=O)Cc1c(C)c2ccc(OC(C)=O)c(OC(C)=O)c2oc1=O", "unitsText": "µM", "GI50": 18.7}

Now consider a different molecule.
Query: State the recorded GI50 for this entry: CC1(c2ccc(Cl)cc2)C=C(c2ccc(Cl)cc2)C(C#N)=C(C(C#N)C#N)N1.CNC (stereo not given)
Reply: 15.1

----------
# System: DU-145
# assayNotes: NCI tumour cell line growth inhibition, 48 h
Calls of active or inactive are those of the source. Cut-off read from the data, not from the text of the source: active = GI50 up to about 1.1 µM and inactive = higher. Non-standard residues stand in square brackets, D forms with d. Residues, ends and D or L forms follow the SMILES beside them. *: point of attachment. hSer = N[CH](CCO)C(=O)O; Boc = CC(C)(C)OC(=O)*
readoutKind: GI50

Query: Requested read-out: GI50. Entry: C[C@]12CCC(=O)C=C1CC[C@@H]1[C@@H]2[C@@H](O)C[C@@]2(C)[C@H]1CC[C@]2(O)C(=O)COC(=O)C1CCCC1
Reply: > 100 µM (inactive)

Query: # iterate: O=C(NNC(=O)c1ccccc1O)c1ccc(O)cc1
Reply: 76.7 µM (inactive)

Query: Now consider CCCCCCCCCCCCN1[C@H]2CCC[C@H]2C(O)[C@@H]2CCC[C@@H]21 (some centres undefined) and answer again.
Reply: > 100 µM (inactive)

Query: Entry N#CC1C(=O)NC2=C(CCOc3c2ccc2ccccc32)C1c1ccc(F)cc1 (centres undefined) please
Reply: 29.1 µM (inactive)

Query: Thanks! And COc1ccc(/C=C2/SC(c3ccccc3)N(NC(=O)CCCCCCCCC(=O)NN3C(=O)/C(=C\c4ccc(OC)c(OC)c4)SC3c3ccccc3)C2=O)cc1OC (centres undefined) ?
Reply: > 100 µM (inactive)

Query: Param item: COCCC(NC(=O)C(CC(C)C)NC(=O)OC(C)(C)C)C(N)=O (stereo not drawn) (Boc-Leu-[hSer](Me)-NH2; configuration not given here)
Reply: > 100 µM (inactive)

Query: Now consider Cc1ncc2c(n1)CCC1=C2OS(=O)(=O)CC1N(C)C (centres undefined) and answer again.
Reply: > 100 µM (inactive)

Query: Same question, COc1nc(C(=O)NNC(=O)c2nc(OC)c3ccccc3c2-c2ccccc2)c(-c2ccccc2)c2ccccc12 this time
Reply: > 100 µM (inactive)

Query: Follow-up entry: O=C1O/C(=C\c2ccc(O)cc2)C(c2ccc(O)c(Cl)c2)=C1Br
Reply: 12.9 µM (inactive)
